- Test system: sedge umbrella (small-flower umbrella sedge, Cyperus difformis)
- protocol: Test D flooded paddy test, visual plant response rating
- Format: in vivo
- condition-set: 250 g ai/ha, scale 0 to 100 (0 no effect, 100 complete control), 13 to 15 d
readout-kind: Plant response rating, Sedge, Umbrella (Flood)

# compound, data-value
measured = [
    ("C#CCON=C(c1cccc(OCC(F)(F)F)c1)c1c(O)c(C)nn(C)c1=O [Compound 197]", 0),
    ("CON=C(c1ccc(F)c(Br)c1)c1c(O)c(C)nn(C)c1=O [Compound 177]", 0),
    ("CON=C(c1cc(Cl)cc(Cl)c1F)c1c(O)c(C)nn(C)c1=O [Compound 153]", 70),
    ("C#CCO/N=C(/c1ccc(F)c(Br)c1)c1c(O)c(C)nn(C)c1=O [Compound 163]", 0),
    ("C=CCO/N=C(\\c1c(O)c(C)nn(C)c1=O)c1cccc2cc(Cl)ccc12 [Compound 243]", 100),
    ("C#CCO/N=C(\\c1cccc(/C=C/Cl)c1)c1c(O)c(C)nn(C)c1=O [Compound 254]", 0),
]

###

- System: blackgrass (Alopecurus myosuroides)
- protocol: Test A postemergence, visual plant response rating
- Type: in vivo
- condition-set: Postemergence, 125 g ai/ha; 0 to 100 scale (0 no effect, 100 complete control)
readout-kind: Blackgrass plant response rating

# molecule, data-value
records = [
    ("Cc1ccccc1/C(=N/OC(C)C)c1c(O)c(C)nn(C)c1=O [Compound 19]", 10),
    ("CON=C(c1cc(Cl)ccc1C)c1c(O)c(C)nn(C)c1=O [Compound 65]", 10),
    ("CO/N=C(/c1ccccc1F)c1c(O)c(C)nn(C)c1=O [Compound 62]", 10),
]

###

- System: ragweed (common ragweed, Ambrosia artemisiifolia)
- protocol: Test C postemergence, visual plant response rating
- Format: in vivo
- condition-set: Postemergence, 31 g ai/ha
Output schema: class label derived from Ragweed plant response rating (0 to 100 scale). Mapping: category 1 (below 30), category 2 (30 to below 60), category 3 (60 or more)

# compound, answer-label
data = [
    ("CO/N=C(/c1c(O)c(C)nn(C)c1=O)c1cccc2cc(Cl)ccc12 [Compound 301]", "category 1"),
    ("CON=C(c1cc(Cl)cc(Cl)c1F)c1c(O)c(C)nn(C)c1=O", "category 3"),
    ("CCO/N=C(\\c1c(O)c(C)nn(C)c1=O)c1cccc2cc(Cl)ccc12", "category 3"),
    ("CON=C(c1cc(Cl)cc(Cl)c1Cl)c1c(O)c(C)nn(C)c1=O [Compound 214]", "category 3"),
    ("CO/N=C(/c1c(O)c(C)nn(C)c1=O)c1cccc2cc(SC)ccc12", "category 1"),
    ("Cc1nn(C)c(=O)c(/C(=N/OCc2ccccc2)c2ccc(F)c3ccccc23)c1O", "category 2"),
    ("Cc1nn(C)c(=O)c(C(=NOCC2CC2)c2cc(Cl)cc(Cl)c2Cl)c1O", "category 2"),
    ("C#CCO/N=C(/c1c(O)c(Cl)nn(C)c1=O)c1ccc(F)c2ccccc12", "category 3"),
    ("C#CCO/N=C(\\c1ccc(Cl)c(Cl)c1)c1c(O)c(C)nn(C)c1=O", "category 1"),
    ("C#CCON=C(c1cccc(OC)c1)c1c(O)c(C)nn(C)c1=O", "category 1"),
    ("CON=C(c1cc(Cl)cc(Cl)c1)c1c(O)c(C)nn(C)c1=O [Compound 189]", "category 3"),
    ("CCO/N=C(/c1c(O)cnn(C)c1=O)c1ccc(F)c2ccccc12", "category 1"),
]

###

- Tested on: ragweed (common ragweed, Ambrosia elatior)
- protocol: Test A preemergence, visual plant response rating
- Format: in vivo
- condition-set: 125 g ai/ha, preemergence; 0 to 100 scale, 0 no effect, 100 complete control

# structure-smiles-string, Ragweed plant response rating
measured = [
    ("C=CCc1ccccc1C(=NOC)c1c(O)c(C)nn(C)c1=O", 10),
    ("C=CCO/N=C(\\c1c(O)c(C)nn(C)c1=O)c1ccc(F)c2ccccc12", 80),
    ("CO/N=C(\\c1cccc(S(C)(=O)=O)c1)c1c(O)c(C)nn(C)c1=O", 0),
    ("CON=C(c1cccc(C#N)c1)c1c(O)c(C)nn(C)c1=O", 0),
    ("CON=C(c1c(Cl)ccc(C)c1F)c1c(O)c(C)nn(C)c1=O", 20),
    ("Cc1ccc(Cl)cc1/C(=N\\O)c1c(O)c(C)nn(C)c1=O", 0),
    ("CON=C(c1c(O)c(C)nn(C)c1=O)c1cccc2ccoc12", 0),
    ("CCc1ccccc1C(=NOC)c1c(O)c(C)nn(C)c1=O", 10),
    ("CON=C(c1ccc(C)o1)c1c(O)c(C)nn(C)c1=O", 0),
    ("CCc1cccc(/C(=N\\OC)c2c(O)c(C)nn(C)c2=O)c1", 20),
    ("CON=C(c1c(O)c(C)nn(C)c1=O)c1cccc2cc(Br)ccc12", 100),
    ("CO/N=C(/c1ccsc1C)c1c(O)c(C)nn(C)c1=O", 0),
    ("CCO/N=C(\\c1c(O)c(C)nn(C)c1=O)c1ccc(F)c2ccccc12", 90),
    ("CCO/N=C(\\c1c(O)c(C)nn(C)c1=O)c1cccc2ccccc12", 90),
    ("CO/N=C(\\c1ccccc1C#N)c1c(O)c(C)nn(C)c1=O", 0),
]

###

- Test system: corn (Zea mays)
- protocol: Test A postemergence, visual plant response rating
- Assay type: in vivo
- condition-set: 500 g ai/ha, postemergence; 0 is no effect, 100 is complete control
Corn plant response rating (0 to 100 scale) below 20 gives no; Corn plant response rating (0 to 100 scale) at or above it gives yes.

# compound, answer-label
data = [
    ("CO/N=C(/c1cccc(F)c1)c1c(O)c(C)nn(C)c1=O", "no"),
    ("C#CCO/N=C(\\c1c(O)c(C)nn(C)c1=O)c1cccc2ccccc12", "yes"),
    ("CO/N=C(\\c1c(O)c(C)nn(C)c1=O)c1cc(Br)cc2ccccc12", "yes"),
    ("CON=C(c1c(O)c(C)nn(C)c1=O)c1csc2ccccc12 (single isomer, unassigned)", "no"),
    ("CCO/N=C(/c1cccc(C)c1C)c1c(O)c(C)nn(C)c1=O", "no"),
    ("CCn1nc(C)c(O)c(/C(=N/OC)c2cccc(C)c2)c1=O", "no"),
    ("CON=C(c1cccc(Cl)c1)c1c(O)c(C)nn(C2CC2)c1=O (mixture of isomers)", "no"),
    ("C#CCO/N=C(/c1c(O)c(C)nn(C)c1=O)c1cc(Br)cc2ccccc12", "yes"),
]

###

- System: pigweed (Amaranthus retroflexus)
- protocol: Test C preemergence, visual plant response rating
- Assay type: in vivo
- condition-set: 125 g ai/ha
List of Pigweed plant response rating (0 to 100 scale) values.
readout-kind: Pigweed plant response rating (0 to 100 scale)

# molecule, assay-target, data-value
rows = [
    ("Cc1nn(C)c(=O)c(/C(=N/OC(C)C)c2cc(Cl)cc(Cl)c2Cl)c1O", "pigweed (Amaranthus retroflexus)", 100),
    ("CO/N=C(\\c1cc(Cl)cc(Br)c1)c1c(O)c(C)nn(C)c1=O", "pigweed (Amaranthus retroflexus)", 40),
    ("C#CCO/N=C(/c1ccc(F)c(Br)c1)c1c(O)c(C)nn(C)c1=O", "pigweed (Amaranthus retroflexus)", 50),
    ("C#CCO/N=C(\\c1cc(Cl)cc(Cl)c1Cl)c1c(O)c(C)nn(C)c1=O", "pigweed (Amaranthus retroflexus)", 90),
    ("C#CCON=C(c1ccc(Cl)c(Cl)c1)c1c(O)c(C)nn(C)c1=O", "pigweed (Amaranthus retroflexus)", 70),
    ("C#CCON=C(c1c(O)c(OC)nn(C)c1=O)c1cccc2ccccc12 (mixture of isomers)", "pigweed (Amaranthus retroflexus)", 100),
    ("CON=C(c1ccc(F)c(Br)c1)c1c(O)c(C)nn(C)c1=O", "pigweed (Amaranthus retroflexus)", 10),
]

###

- System: Italian ryegrass (Lolium multiflorum)
- protocol: Test A preemergence, visual plant response rating
- Assay type: in vivo
- condition-set: 500 g ai/ha Preemergence; approx. 10 days
- Excerpt: […]
readout-kind: Ryegrass, Italian plant response rating (0 to 100 scale)

# molecule, data-value
measured = [
    ("CO/N=C(\\c1c(O)c(Cl)nn(C)c1=O)c1cccc2ccccc12 [Compound 129]", 0),
    ("CO/N=C(\\c1ccccc1C#N)c1c(O)c(C)nn(C)c1=O [Compound 76]", 0),
    ("Cc1cccc(/C(=N\\O)c2c(O)c(C)nn(C)c2=O)c1 [Compound 21]", 0),
    ("CO/N=C(\\c1cscc1C)c1c(O)c(C)nn(C)c1=O [Compound 52]", 40),
    ("CCO/N=C(\\c1c(O)c(C)nn(C)c1=O)c1cccc2ccccc12 [Compound 79]", 60),
    ("C#CCO/N=C(/c1c(O)c(C)nn(C)c1=O)c1cccc2ccccc12 [Compound 82]", 100),
    ("C#CCn1nc(C)c(O)c(C(=NOC)c2cccc(Cl)c2)c1=O (mixture of isomers) [Compound 3]", 70),
]

Sourced from patent US20210045385A1
